Each recorded value in this set is attributed to patent US20240245658A1.

Reported pEC50 values for the following compounds.
Target: human TAAR1 receptors (Homo sapiens, UniProt Q96RJ0)
Sequence (Q96RJ0 1-339): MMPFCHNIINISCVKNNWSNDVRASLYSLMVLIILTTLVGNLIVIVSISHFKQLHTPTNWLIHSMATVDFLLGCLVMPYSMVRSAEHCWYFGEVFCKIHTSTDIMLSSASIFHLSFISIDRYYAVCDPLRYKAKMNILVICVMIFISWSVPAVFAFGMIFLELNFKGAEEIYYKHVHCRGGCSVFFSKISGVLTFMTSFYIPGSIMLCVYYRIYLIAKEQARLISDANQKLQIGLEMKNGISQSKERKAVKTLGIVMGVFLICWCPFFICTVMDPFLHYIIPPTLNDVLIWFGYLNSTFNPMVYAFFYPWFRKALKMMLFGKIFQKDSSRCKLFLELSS
Assay: TAAR1 Agonism Assay: cAMP HTRF assay for Gs coupled receptor TAAR1 (Euroscreen FAST-0987C)
Conditions: CHO-K1 cells expressing human TAAR1, cAMP HTRF
pEC50: −log10 of the molar value.

Recorded pEC50, per entry:
{"COMPOUND": "CNCC1Cc2ncccc2Oc2ccc(F)cc21 (single isomer, unassigned) [Compound 166]", "TARGET_OF_ASSAY": "human TAAR1 receptors (Homo sapiens, UniProt Q96RJ0)", "pEC50": "> 6.00"}
{"COMPOUND": "CNCC1Cc2ccccc2Oc2cccnc21 (single isomer, unassigned) [Compound 5]", "TARGET_OF_ASSAY": "human TAAR1 receptors (Homo sapiens, UniProt Q96RJ0)", "pEC50": "> 6.00"}
{"COMPOUND": "CNC[C@H]1Cc2ncc(F)cc2Oc2ccccc21 (single isomer, unassigned)", "TARGET_OF_ASSAY": "human TAAR1 receptors (Homo sapiens, UniProt Q96RJ0)", "pEC50": "5.00 to 6.00"}
{"COMPOUND": "CNCC1Oc2ccc(F)cc2Oc2ccccc21 (single isomer, unassigned) [Compound 44]", "TARGET_OF_ASSAY": "human TAAR1 receptors (Homo sapiens, UniProt Q96RJ0)", "pEC50": "> 6.00"}
{"COMPOUND": "NCC1Cc2ncc(Cl)cc2Oc2ccccc21 (single isomer, unassigned) [Compound 180]", "TARGET_OF_ASSAY": "human TAAR1 receptors (Homo sapiens, UniProt Q96RJ0)", "pEC50": "> 6.00"}

Quick one: pEC50 of CNCC1Cc2ncccc2Oc2ccc(C#N)cc21 (single isomer, unassigned) [Compound 161] ?
< 5.00

Also CNCC1Cc2c(Cl)cccc2Oc2cccnc21 (single isomer, unassigned) [Compound 146] , if possible.
< 5.00

Another: CNCC1Oc2ccccc2Oc2ncccc21 (single isomer, unassigned) [Compound 45]
< 5.00

----------
Listed next: entries and their corresponding IC50.
Molecular target: human 5-HT2A receptor (Homo sapiens, UniProt P28223)
Construct: host or cells: CHO-K1
Sequence (P28223 whole entry): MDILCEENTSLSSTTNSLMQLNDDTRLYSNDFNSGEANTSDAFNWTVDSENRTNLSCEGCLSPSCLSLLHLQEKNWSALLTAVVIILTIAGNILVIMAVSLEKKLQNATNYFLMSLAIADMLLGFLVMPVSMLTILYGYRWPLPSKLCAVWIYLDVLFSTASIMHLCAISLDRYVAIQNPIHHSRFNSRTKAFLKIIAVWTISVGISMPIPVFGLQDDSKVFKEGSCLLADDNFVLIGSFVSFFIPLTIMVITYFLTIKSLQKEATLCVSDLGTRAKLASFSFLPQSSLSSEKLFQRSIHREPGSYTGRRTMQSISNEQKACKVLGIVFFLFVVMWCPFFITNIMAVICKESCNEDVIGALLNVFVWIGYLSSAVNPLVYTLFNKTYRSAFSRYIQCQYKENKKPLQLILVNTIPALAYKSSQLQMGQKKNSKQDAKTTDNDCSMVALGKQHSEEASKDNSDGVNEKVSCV
Experiment: 5HT2A Antagonism Assay (Euroscreen FAST-05051), IP-One HTRF
Assay type: cell-based
Conditions: 5-HT2A (IC50), CHO-K1 cells expressing human 5-HT2A, reference agonist at EC80, IP-One

I'd like to know its IC50. The compound in question is NCC1Cc2c(F)cncc2Oc2ccccc21 (single isomer, unassigned) [Compound 153]
< 1 µM

Try this compound too: NCC1Cc2cc(Cl)ccc2Oc2cccnc21 (single isomer, unassigned) [Compound 120]
1 to 10 µM

Okay, and NCC1Cc2ncccc2Oc2cc(Cl)ccc21 (single isomer, unassigned) [Compound 171] ?
< 1 µM

And the next one, NCC1Cc2ccccc2Oc2cccc(F)c21 (single isomer, unassigned) [Compound 105] ?
> 10 µM

Try this compound next: NCC1Cc2ncccc2Oc2ccc(F)cc21 (single isomer, unassigned) [Compound 163]
1 to 10 µM

Check NCC1Cc2ccc(Cl)cc2Oc2cccnc21 (single isomer, unassigned) [Compound 124] too.
1 to 10 µM

Query NCC1Cc2ccccc2Oc2ccc(F)cc21 (single isomer, unassigned) [Compound 92] next
< 1 µM

Okay, and CNCC1Cc2ccccc2Oc2ccc(F)cc21 (single isomer, unassigned) [Compound 94] ?
< 1 µM

----------
Target: human TAAR1 receptors (Homo sapiens, UniProt Q96RJ0)
Experiment: TAAR1 Agonism Assay: cAMP HTRF assay for Gs coupled receptor TAAR1 (Euroscreen FAST-0987C)
Details: CHO-K1 cells expressing human TAAR1, cAMP HTRF
pEC50: −log10 of the molar value.
METRIC: pEC50

Worked cases, answers included:
{"COMPOUND": "CNCC1Cc2ccccc2Oc2c(F)cccc21 (single isomer, unassigned) [Compound 103]", "TARGET_OF_ASSAY": "human TAAR1 receptors (Homo sapiens, UniProt Q96RJ0)", "pEC50": "5.00 to 6.00"}
{"COMPOUND": "CNC[C@H]1Oc2ccccc2Oc2ccncc21 (single isomer, unassigned) [Compound 56]", "TARGET_OF_ASSAY": "human TAAR1 receptors (Homo sapiens, UniProt Q96RJ0)", "pEC50": "< 5.00"}
{"COMPOUND": "CNCC1Cc2ccccc2Oc2cc(F)ccc21 (single isomer, unassigned) [Compound 3]", "TARGET_OF_ASSAY": "human TAAR1 receptors (Homo sapiens, UniProt Q96RJ0)", "pEC50": "< 5.00"}

For the compound shown here, NCC1Cc2cc(F)ccc2Oc2ccccc21 (single isomer, unassigned) [Compound 96] , give the reported pEC50.
> 6.00

Field entry: CNCC1Cc2ccccc2Oc2ccc(C)nc21 (single isomer, unassigned) [Compound 150]
> 6.00

Again, but for CNCC1Cc2cccnc2Oc2ccccc21 (single isomer, unassigned) [Compound 20]
< 5.00

Proceed to NCC1Cc2ccc(Cl)cc2Oc2cccnc21 (single isomer, unassigned) [Compound 124]
> 6.00

Another compound: CNCC1Oc2ccc(F)cc2Oc2ccccc21 (single isomer, unassigned) [Compound 43]
> 6.00

----------
Target: human 5-HT7 receptor (Homo sapiens, UniProt P34969)
Sequence (P34969 whole entry): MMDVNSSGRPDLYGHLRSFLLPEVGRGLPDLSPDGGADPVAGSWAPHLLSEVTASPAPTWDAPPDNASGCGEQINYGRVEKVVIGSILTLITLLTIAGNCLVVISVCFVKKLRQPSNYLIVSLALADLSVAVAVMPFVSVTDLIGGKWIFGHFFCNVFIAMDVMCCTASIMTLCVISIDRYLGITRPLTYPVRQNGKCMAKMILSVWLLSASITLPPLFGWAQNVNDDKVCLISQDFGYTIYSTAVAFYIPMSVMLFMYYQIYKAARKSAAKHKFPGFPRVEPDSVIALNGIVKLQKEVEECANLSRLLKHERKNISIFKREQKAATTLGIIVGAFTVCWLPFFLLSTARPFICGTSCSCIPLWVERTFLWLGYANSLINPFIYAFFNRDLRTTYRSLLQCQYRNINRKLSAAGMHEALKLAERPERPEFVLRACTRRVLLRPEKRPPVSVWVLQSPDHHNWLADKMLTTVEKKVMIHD
Test: 5HT7 Antagonism Assay (Euroscreen FAST-0499C), cAMP HTRF
Conditions: CHO-K1 cells expressing human 5-HT7, reference agonist at EC80, cAMP HTRF
METRIC: IC50

# annotated cases, reported IC50 shown
{"COMPOUND": "CNCC1Cc2ccncc2Oc2ccccc21 (single isomer, unassigned) [Compound 24]", "TARGET_OF_ASSAY": "human 5-HT7 receptor (Homo sapiens, UniProt P34969)", "IC50": "1 to 10 µM"}
{"COMPOUND": "C[C@H]1c2ccccc2Oc2cccnc2[C@@H]1CN (stereo in doubt)", "TARGET_OF_ASSAY": "human 5-HT7 receptor (Homo sapiens, UniProt P34969)", "IC50": "≥ 10 µM"}
{"COMPOUND": "CNCC1Cc2ncccc2Oc2ccc(Cl)cc21 (single isomer, unassigned)", "TARGET_OF_ASSAY": "human 5-HT7 receptor (Homo sapiens, UniProt P34969)", "IC50": "< 1 µM"}
{"COMPOUND": "NCC1Cc2ccc(Cl)cc2Oc2cccnc21 (single isomer, unassigned) [Compound 125]", "TARGET_OF_ASSAY": "human 5-HT7 receptor (Homo sapiens, UniProt P34969)", "IC50": "≥ 10 µM"}
{"COMPOUND": "NCC1Cc2c(F)cncc2Oc2ccccc21 (single isomer, unassigned) [Compound 153]", "TARGET_OF_ASSAY": "human 5-HT7 receptor (Homo sapiens, UniProt P34969)", "IC50": "≥ 10 µM"}
{"COMPOUND": "Cc1ccc2c(c1)CC(CN)c1ncccc1O2 (single isomer, unassigned) [Compound 128]", "TARGET_OF_ASSAY": "human 5-HT7 receptor (Homo sapiens, UniProt P34969)", "IC50": "1 to 10 µM"}

Look up IC50: NCC1Cc2ccccc2Oc2c(F)cccc21 (single isomer, unassigned) [Compound 101]
≥ 10 µM

Repeat for the following compound: CNCC1Cc2cc(Cl)ccc2Oc2cccnc21 (single isomer, unassigned) [Compound 122]
1 to 10 µM

What do you have for NCC1Cc2ccccc2Oc2ccc(F)cc21 (single isomer, unassigned) ?
≥ 10 µM

Now try CNCC1Cc2ccccc2Oc2cc(F)ccc21 (single isomer, unassigned) [Compound 4] .
1 to 10 µM

Please answer likewise for NCC1Cc2ncccc2Oc2ccc(F)cc21 (single isomer, unassigned) [Compound 163]
≥ 10 µM

Would you kindly repeat that for CNCC1Cc2ncccc2Oc2cc(Cl)ccc21 (single isomer, unassigned) [Compound 174] ?
1 to 10 µM

Check CNCC1Cc2cccc(F)c2Oc2ccccc21 (single isomer, unassigned) [Compound 86] too.
1 to 10 µM

Ok, now NCC1Cc2ccccc2Oc2cccnc21 (single isomer, unassigned) [Compound 7]
1 to 10 µM

Next compound: CNCC1Cc2ncccc2Oc2ccccc21 (single isomer, unassigned) [Compound 31]
≥ 10 µM

----------
Target: human 5-HT2A receptor (Homo sapiens)
Construct: host or cells: CHO-K1
Assay: 5HT2A Antagonism Assay (Euroscreen FAST-05051), IP-One HTRF
Type: cell-based
Details: read-out: 5-HT2A (IC50), CHO-K1 cells expressing human 5-HT2A, reference agonist at EC80, IP-One
pIC50: −log10 of the molar value.
METRIC: pIC50

Take a look at these entries with their results.
{"MOLECULE": "NCC1Cc2ncccc2Oc2ccccc21 (single isomer, unassigned)", "pIC50": "5.00 to 6.00"}
{"MOLECULE": "NCC1Cc2ncc(F)cc2Oc2ccccc21 (single isomer, unassigned)", "pIC50": "> 6.00"}
{"MOLECULE": "CNCC1Cc2ncccc2Oc2ccccc21 (single isomer, unassigned)", "pIC50": "> 6.00"}
{"MOLECULE": "CNCC1Cc2ccccc2Oc2cc(F)ccc21 (single isomer, unassigned)", "pIC50": "> 6.00"}
{"MOLECULE": "NCC1Oc2ccccc2Oc2cnccc21 (single isomer, unassigned)", "pIC50": "< 5.00"}
{"MOLECULE": "NCC1Oc2ccc(F)cc2Oc2ccccc21 (single isomer, unassigned)", "pIC50": "> 6.00"}

Given NCC1Cc2ncccc2Oc2cc(Cl)ccc21 (single isomer, unassigned) , state its recorded pIC50.
> 6.00

What would you report for CNCC1Cc2cccc(F)c2Oc2ccccc21 (single isomer, unassigned) ?
> 6.00

Follow-up entry: CNCC1Oc2ccc(F)cc2Oc2ccccc21 (single isomer, unassigned)
> 6.00

Check CNCC1Cc2cc(Cl)ccc2Oc2cccnc21 (single isomer, unassigned) too.
> 6.00

Entry CNCC1Oc2ccccc2Oc2cccnc21 (single isomer, unassigned) please
5.00 to 6.00
